target: AGE-BSA previously crosslinked to the collagen (Bos taurus, UniProt P02769); construct: Type V BSA (bovine serum albumin); purchased Calbiochem (BSA Type V); Collaborative Biomedical Products (Biocoat rat tail collagen type I plates); assay: Sandwich enzyme immunoassay for breaking of AGE moieties from AGE-BSA crosslinked to collagen (AGE breaker assay); format: biochemical, bovine; rat; details: IC50 (mM) Anti-AGE, AGE breaking, 16 hours 37° C., detection with anti-AGE-RNase antibody
Sequence (P02769 25-607): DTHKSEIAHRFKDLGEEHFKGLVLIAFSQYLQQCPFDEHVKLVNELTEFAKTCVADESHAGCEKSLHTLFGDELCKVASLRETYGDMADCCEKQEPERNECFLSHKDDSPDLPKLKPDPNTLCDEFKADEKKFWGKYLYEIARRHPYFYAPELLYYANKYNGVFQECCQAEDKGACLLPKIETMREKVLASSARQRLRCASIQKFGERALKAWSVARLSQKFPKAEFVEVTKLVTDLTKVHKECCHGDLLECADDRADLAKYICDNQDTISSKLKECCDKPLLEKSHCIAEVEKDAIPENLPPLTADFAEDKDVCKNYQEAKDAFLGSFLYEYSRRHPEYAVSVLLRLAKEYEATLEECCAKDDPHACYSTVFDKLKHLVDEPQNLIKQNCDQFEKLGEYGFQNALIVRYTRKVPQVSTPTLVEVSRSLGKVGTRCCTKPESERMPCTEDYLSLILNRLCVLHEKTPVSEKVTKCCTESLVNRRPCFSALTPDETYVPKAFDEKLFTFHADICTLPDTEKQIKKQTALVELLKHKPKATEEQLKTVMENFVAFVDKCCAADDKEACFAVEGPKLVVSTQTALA
Sequence (P02454 152-1207 partner limits assumed): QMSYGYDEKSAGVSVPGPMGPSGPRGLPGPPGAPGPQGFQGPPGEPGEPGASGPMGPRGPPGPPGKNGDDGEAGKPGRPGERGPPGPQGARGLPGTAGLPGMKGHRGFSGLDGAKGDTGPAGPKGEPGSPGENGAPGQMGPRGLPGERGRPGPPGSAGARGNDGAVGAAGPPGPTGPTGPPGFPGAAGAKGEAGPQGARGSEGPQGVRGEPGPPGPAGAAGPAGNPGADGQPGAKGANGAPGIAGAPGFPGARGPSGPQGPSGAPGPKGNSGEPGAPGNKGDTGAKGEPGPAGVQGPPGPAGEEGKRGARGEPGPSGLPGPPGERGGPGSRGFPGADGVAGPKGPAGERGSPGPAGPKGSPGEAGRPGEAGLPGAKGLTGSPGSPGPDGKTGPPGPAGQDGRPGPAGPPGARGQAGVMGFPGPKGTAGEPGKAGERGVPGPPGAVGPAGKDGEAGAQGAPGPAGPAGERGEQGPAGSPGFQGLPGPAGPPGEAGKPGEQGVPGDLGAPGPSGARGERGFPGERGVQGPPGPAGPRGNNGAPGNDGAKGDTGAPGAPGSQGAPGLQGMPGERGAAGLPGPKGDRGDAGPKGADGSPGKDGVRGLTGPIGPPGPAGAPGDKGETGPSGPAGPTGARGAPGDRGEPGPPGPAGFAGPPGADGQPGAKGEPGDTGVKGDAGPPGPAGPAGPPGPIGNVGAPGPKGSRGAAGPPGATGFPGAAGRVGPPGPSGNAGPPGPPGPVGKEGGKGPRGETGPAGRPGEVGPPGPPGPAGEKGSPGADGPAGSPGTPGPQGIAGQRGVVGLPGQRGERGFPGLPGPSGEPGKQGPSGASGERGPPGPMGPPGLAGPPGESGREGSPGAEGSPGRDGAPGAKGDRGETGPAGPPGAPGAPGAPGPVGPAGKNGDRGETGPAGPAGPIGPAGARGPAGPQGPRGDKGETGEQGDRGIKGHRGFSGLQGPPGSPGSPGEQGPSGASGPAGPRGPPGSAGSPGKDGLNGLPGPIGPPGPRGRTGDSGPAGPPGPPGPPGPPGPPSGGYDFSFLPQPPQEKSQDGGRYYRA
Sequence (P02466 86-1125 partner limits assumed): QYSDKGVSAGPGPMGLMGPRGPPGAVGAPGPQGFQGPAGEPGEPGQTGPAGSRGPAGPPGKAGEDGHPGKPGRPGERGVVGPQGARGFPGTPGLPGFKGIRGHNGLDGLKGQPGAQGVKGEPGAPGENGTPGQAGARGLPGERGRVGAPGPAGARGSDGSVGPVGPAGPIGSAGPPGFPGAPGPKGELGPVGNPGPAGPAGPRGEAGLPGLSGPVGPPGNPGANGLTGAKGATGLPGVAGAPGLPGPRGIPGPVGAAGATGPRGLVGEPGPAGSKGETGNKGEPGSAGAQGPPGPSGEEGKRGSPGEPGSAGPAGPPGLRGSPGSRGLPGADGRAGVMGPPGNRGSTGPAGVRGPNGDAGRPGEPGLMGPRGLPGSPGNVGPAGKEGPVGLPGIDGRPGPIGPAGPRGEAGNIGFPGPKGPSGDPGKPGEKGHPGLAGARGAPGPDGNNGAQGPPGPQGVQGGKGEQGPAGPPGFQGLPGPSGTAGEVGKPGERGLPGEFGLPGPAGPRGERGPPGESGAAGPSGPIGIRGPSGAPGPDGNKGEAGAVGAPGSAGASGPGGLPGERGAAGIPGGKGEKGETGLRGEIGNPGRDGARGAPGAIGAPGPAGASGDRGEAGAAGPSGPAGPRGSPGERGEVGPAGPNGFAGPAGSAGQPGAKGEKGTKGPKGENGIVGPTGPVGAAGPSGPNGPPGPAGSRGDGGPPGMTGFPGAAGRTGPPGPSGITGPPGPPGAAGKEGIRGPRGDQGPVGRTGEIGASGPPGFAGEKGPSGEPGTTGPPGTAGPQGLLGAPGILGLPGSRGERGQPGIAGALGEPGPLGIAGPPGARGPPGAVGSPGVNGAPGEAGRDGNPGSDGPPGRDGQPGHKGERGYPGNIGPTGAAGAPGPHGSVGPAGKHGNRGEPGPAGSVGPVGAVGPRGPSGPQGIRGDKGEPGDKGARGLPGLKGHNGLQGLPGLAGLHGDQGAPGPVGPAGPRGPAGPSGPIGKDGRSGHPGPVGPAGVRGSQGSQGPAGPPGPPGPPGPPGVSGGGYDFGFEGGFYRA
measure-name: IC50 (nM)
Give bare numbers, in nM.

Query string: Dear colleague, I am looking for the recorded IC50 of the following compound: `CC(=O)C[n+]1ccsc1.[Cl-]`
Result string: 36

###

target: AGE-BSA previously crosslinked to the collagen (Bos taurus); construct: Type V BSA (bovine serum albumin); purchased Calbiochem (BSA Type V); Collaborative Biomedical Products (Biocoat rat tail collagen type I plates); assay: Sandwich enzyme immunoassay for breaking of AGE moieties from AGE-BSA crosslinked to collagen (AGE breaker assay); assay type: biochemical, bovine; rat; settings: read-out: % Inhibition Anti-AGE (at mM)
Assign class by inhibition at 30000 µM: not lower than 50% means true; lower than 50% means false.

Cc1sc[n+](CC(N)=O)c1C.[Br-] : true
COC(=O)C[n+]1ccsc1 : false
COC(=O)C[n+]1csc(C)c1.[Br-] : true

Query string: Reported inhibition at 30000 µM reaches at least 50% for O=C(O)C[n+]1csc2ccccc21.[Br-] [3-(carboxymethyl)benzothiazolium bromide] ?
Result string: true

Query string: Reported inhibition at 30000 µM reaches at least 50% for `COC(=O)C[n+]1cscc1C.[Br-]` ?
Result string: true

Query string: Reported inhibition at 30000 µM reaches at least 50% for `Cc1sc[n+](CC(=O)c2ccccc2)c1C` ?
Result string: true

###

biological target: AGE-BSA previously crosslinked to the collagen (Bos taurus, UniProt P02769); construct: Type V BSA (bovine serum albumin); purchased Calbiochem (BSA Type V); Collaborative Biomedical Products (Biocoat rat tail collagen type I plates); assay: Sandwich enzyme immunoassay for breaking of AGE moieties from AGE-BSA crosslinked to collagen (AGE breaker assay); format: biochemical, bovine; rat; conditions: AGE breaking, 16 hours 37° C., detection with anti-BSA antibody; read-out: IC50 (mM) Anti-BSA
Would you kindly list IC50 for each of these molecules?
Numbers only, in mM.

Consider the following illustrative entries.
Cc1c(CCO)sc[n+]1CC(N)=O : 0.12
O=C(C[n+]1ccsc1)c1ccccc1 : 0.014
Cc1csc[n+]1CC(N)=O : 38.6

Look up IC50 for the entries below, preserving their order.
1. COC(=O)C[n+]1csc2ccccc21
2. NC(=O)C[n+]1csc2ccccc21.[Br-]
3. Cc1csc[n+]1CC(=O)c1ccccc1.[Br-]
4. Cc1c(CCO)sc[n+]1Cc1ccccc1.[Cl-]

Result string:
25.9
0.52
0.3
0.55

###

molecular target: cross-linking of glycated bovine serum albumin (AGE-BSA) to the rat tail tendon collagen (Bos taurus, UniProt P02769); construct: glycated bovine serum albumin (AGE-BSA); BSA from bovine serum, glycated in house; assay: Inhibition of cross-linking of glycated BSA (AGE-BSA) to rat tail tendon collagen coated 96-well plate (ELISA)
Sequence (P02769 25-607): as the sequence (P02769 25-607) above
pIC50: −log10 of the molar value.
Assign class by pIC50: not lower than 4 means Fulfilled; lower than 4 means Not fulfilled.

Cc1csc[n+]1CC(=O)c1ccccc1.[Br-] : Not fulfilled
COC(=O)C[n+]1csc(C)c1C : Not fulfilled
Cc1sc[n+](CC(N)=O)c1C.[Br-] : Not fulfilled
Cc1c(CCO)sc[n+]1CC(N)=O : Not fulfilled
COC(=O)C[n+]1csc(C)c1.[Br-] : Fulfilled

Below: the item to evaluate.
Query string: Reported pIC50 reaches at least 4 for NC(=O)C[n+]1ccsc1.[Br-] [3-(2-amino-2-oxoethyl)thiazolium bromide] ?
Result string: Not fulfilled
